# experimental target: Serine/threonine-protein kinase Chk1 (Homo sapiens)
# Sequence (O14757 whole entry): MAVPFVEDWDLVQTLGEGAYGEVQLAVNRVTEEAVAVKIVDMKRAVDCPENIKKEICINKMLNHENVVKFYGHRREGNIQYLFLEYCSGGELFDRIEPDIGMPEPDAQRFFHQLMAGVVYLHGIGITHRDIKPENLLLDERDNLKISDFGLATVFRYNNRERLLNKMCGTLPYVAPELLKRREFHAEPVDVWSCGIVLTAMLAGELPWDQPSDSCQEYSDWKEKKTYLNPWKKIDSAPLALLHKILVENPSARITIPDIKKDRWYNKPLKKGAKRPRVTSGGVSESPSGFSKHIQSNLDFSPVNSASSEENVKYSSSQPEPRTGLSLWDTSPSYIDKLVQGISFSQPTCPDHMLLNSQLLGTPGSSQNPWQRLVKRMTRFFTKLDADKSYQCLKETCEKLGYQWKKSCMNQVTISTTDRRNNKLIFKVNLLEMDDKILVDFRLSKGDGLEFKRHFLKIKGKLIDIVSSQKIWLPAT
measurement type: IC50 (µM)
Numbers only, in µM.

Tell me reported IC50 for CN1CCN(c2ccc(-c3cc4c(c(N)nn4C)c(=O)[nH]3)cc2)CC1 , tested with Serine/threonine-protein kinase Chk1 (Homo sapiens). 24
